assay: Caco-2 permeability assay; settings: human, Caco-2, pH 7.4, with elacridar (concentration not stated)
Readout kind: Papp A→B at 2 h, 10 μM (×10⁻⁶ cm/s)

Asked: Give recorded Papp A→B at 2 h, 10 μM. CC(C)(C)c1ccc(-c2nc3c(F)c(F)c(F)cc3[nH]2)cc1 [Example 64]
Given back: 0.00126

Asked: Give recorded Papp A→B at 2 h, 10 μM. CC(C)(C)c1ccc(-c2nc3c(F)cc(F)cc3[nH]2)cc1 [Example 57]
Given back: 0.13

Asked: Give recorded Papp A→B at 2 h, 10 μM. Nc1ccc(-c2nc3ccccc3[nH]2)cc1 [Example 76, 2-(4-Aminophenyl)-1H-benzo[d]imidazole]
Given back: 3.11

Asked: Give recorded Papp A→B at 2 h, 10 μM. CC(C)(C)c1cccc(-c2nc3c(F)cc(F)cc3[nH]2)c1 [Example 77]
Given back: 0.0634

Asked: Give recorded Papp A→B at 2 h, 10 μM. [2H]c1cc([2H])c2nc(-c3ccc(C(C)(C)C)cc3)[nH]c2c1 [Example 61]
Given back: 1.06

A = CC(C)(C)c1ccc(-c2nc3cc(C(F)(F)F)ccc3[nH]2)cc1 [Example 42]
B = CC(C)(C)c1ccc(-c2nc3cc(C(N)=O)ccc3[nH]2)cc1 [Example 75]
Asked: From the recorded data, which exceeds the other in Papp A→B at 2 h, 10 μM: A or B ? Indicate which entry you chose by stating its label.
Given back: B
(B: 1.33 ×10⁻⁶ cm/s, A: 0.0408 ×10⁻⁶ cm/s)

A = CCCC(=O)OCn1c(-c2ccc(C(C)(C)C)cc2)nc2ccccc21 [Example 2-P]
B = CC(C)(C)c1ccc(-c2nc3cnccc3[nH]2)cc1 [Example 2]
Asked: Could you tell me which of A and B has the lower Papp A→B at 2 h, 10 μM reading? Indicate which entry you chose by stating its label.
Given back: A

----------
experiment: Caco-2 permeability assay; settings: human, Caco-2, pH 7.4, with elacridar (concentration not stated)
Readout kind: Papp A→B at 2 h, 10 μM (×10⁻⁶ cm/s)

a = CC(C)(C)c1cccc(-c2nc3ccccc3[nH]2)c1
b = CC(C)(C)c1ccc(-c2nc3c(F)c(F)c(F)c(F)c3[nH]2)cc1
Asked: From the recorded data, which exceeds the other in Papp A→B at 2 h, 10 μM: a or b ? Indicate which entry you chose by stating its label.
Given back: a

----------
test: Caco-2 permeability assay; details: human, Caco-2, pH 7.4, with elacridar (concentration not stated)
Readout kind: Papp A→B at 2 h, 10 μM (×10⁻⁶ cm/s)

Asked: Give recorded Papp A→B at 2 h, 10 μM. COc1ccc(-c2nc3ccccc3[nH]2)cc1
Given back: 3.31

Asked: Give recorded Papp A→B at 2 h, 10 μM. COC(=O)n1c(-c2ccc(C(C)(C)C)cc2)nc2ccccc21
Given back: 0.251

1 = CC(C)(C)c1ccc(-c2cn3ccccc3n2)cc1
2 = CC(C)(C)c1ccc(-c2nc3c(C(F)(F)F)cccc3[nH]2)cc1
Asked: Could you tell me which of 1 and 2 has the lower Papp A→B at 2 h, 10 μM reading? Indicate which entry you chose by stating its label.
Given back: 2
